- Tested on: NCI/ADR-RES ovarian
- experiment-notes: NCI-60 one-dose screen, 48 h
- measurement-parameters: 10 µM unless noted
This is part of a sample that, as a whole, favours compounds with a hit. Of some 83,000 tested, about 20% had one in any assay. Activity calls are given as the source filed them. How the source made its calls: active means growth percent below 10; inactive means the rest.
Possible outcomes: class 1 for active, class 0 for inactive

compound: Cc1nn(-c2ccccc2)c(N)c1N=C1NC(=O)/C(=C/c2ccc(Br)cc2)S1
category: class 0

compound: CO[C@H]1CC(=O)n2c3ccccc3c3c4c(c5c6ccccc6n1c5c32)C(=O)NC4=O
category: class 0

compound: CC1C(/C=N/NC(N)=S)C(C#N)(C#N)C1(C#N)C#N (stereo not drawn)
category: class 0

compound: Clc1c(Cl)[n+](Cc2ccc3ccccc3c2)cn1Cc1ccc2ccccc2c1
category: class 0

compound: CC(C)=CCNc1ncnc2c1ncn2C1OC(CO)C(O)C1O (stereo not drawn)
category: class 1

compound: COc1ccc(C(=S)N2CCN(c3ccc(Cl)cc3)CC2)cc1
category: class 0

compound: COC(=O)c1c2c(c(C)[n+]([O-])c1C)C(=O)C(NCc1ccc(OC)cc1)=CC2=O
category: class 0

compound: CC(C)N1C(=O)/C(=c2\sc3n(c2=O)C2C(NN=3)N(C)C(=O)N2C)c2ccccc21 (stereo not drawn)
category: class 0

compound: CSC(SC)=C(C#N)c1nc2ccccc2s1
category: class 0

compound: O=C(Cc1ccccc1)Nc1cccc(N=Cc2ccccc2O)c1
category: class 0

compound: C/C(=N\O)c1ccc(NC(=O)CSc2nnc(-c3cc(-c4ccc(S(N)(=O)=O)cc4)nc4ccccc34)n2-c2ccccc2)cc1
category: class 0

compound: Cc1nnc(-c2ccc3c(c2)nc(/C=C/c2ccccc2)n3C2CCCCC2)o1
category: class 0

compound: CC1=C(C(=O)Nc2ccccc2)C(c2ccc3c(c2)OCO3)NC(=S)N1 (stereo not drawn)
category: class 0

compound: C=C1C(=O)O[C@H]2[C@H]1CC/C(COC(=O)NCc1ccc(Cn3c(=O)sn(-c4ccc(C#N)cc4)c3=O)cc1)=C\CC[C@@]1(C)O[C@@H]21
category: class 0

compound: C#CCO[C@H]1CC(CC#C)(CC#C)C(=O)[C@@H]2[C@H]1[C@H]1C[C@@H]3[C@@]4(C)CCC[C@@](C)(C(=O)OC)[C@@H]4CC[C@@]23C=C1C(C)C
category: class 0

compound: COc1ccc(Cn2cc3c(c2-c2ccccc2)CCc2cnoc2-3)cc1
category: class 1

compound: Nc1ncnc2c1N=C(c1ccc3c(c1)OCO3)CC(c1cccc(Nc3ccnc4cc(C(F)(F)F)ccc34)c1)N2 (stereo not drawn)
category: class 0

compound: O=C1Nc2ccccc2C1(c1c[nH]c2ccccc12)c1c[nH]c2ccccc12
category: class 0

compound: Cc1ncc(C(=O)Nc2ccc(CN3CCN(C)CC3)c(C(F)(F)F)c2)cc1C#Cc1cnc(N)c2ncccc12
category: class 0

compound: O=C(N/N=C\c1ccccc1S(=O)(=O)O)N/N=C/c1ccccc1S(=O)(=O)O
category: class 0

compound: O=C(Nc1ccccc1O)c1ccc(CNC(=O)c2ccsc2Nc2ccnc(C(F)(F)F)c2)cc1
category: class 1

compound: CCN(CC)CCN1C(=O)c2cccc3c(/C=C/CN4C(=O)c5cccc6cccc(c56)C4=O)ccc(c23)C1=O
category: class 0

compound: N#CC1CCc2c(c(-c3ccc4nc(N)sc4c3)nc3ccc4[nH]ncc4c23)C1 (stereo not drawn)
category: class 0

compound: O=C1NC(=O)/C(=C/c2c(-c3ccccc3)nc3sc(COc4ccccc4)nn23)S1
category: class 0

compound: CC1(C)[C@@H](O[C@@H]2OC[C@@H](O[C@@H]3O[C@H](CO)[C@@H](O)[C@H](O)[C@H]3O[C@@H]3OC[C@@H](O)[C@H](O)[C@H]3O)[C@H](O)[C@H]2O[C@@H]2O[C@H](CO)[C@@H](O)[C@H](O)[C@H]2O)CC[C@]2(C)[C@H]3CC[C@]45OC[C@@]6(CC[C@](C)(C=O)C[C@H]64)[C@H](O)C[C@@]5(C)[C@]3(C)CC[C@@H]12
category: class 1

compound: Cc1ccc(C=C2C(=O)NC(=O)NC2=O)cc1
category: class 0

compound: COC(=O)c1c2c(n3ccccc13)C(=O)c1ccccc1C2=O
category: class 0

compound: CCOC(=O)C(=Cc1ccc(-c2ccccc2)cc1)C(=O)OCC
category: class 0

compound: Cc1ccc(-c2csc(NC(=O)c3ccccc3CN3C(=O)c4ccccc4C3=O)n2)cc1
category: class 0

compound: CCCCCCCCCCCCCCCCCC1=NC(C)(C)CN1CC(C)O (stereo not drawn)
category: class 0

compound: CSC1=Nc2c(c(C)c(-c3ccccc3)n2CCCC(=O)O)C2=NC(=O)C[C@H](C)N12
category: class 0

compound: Cc1ccc(C(=O)c2ccc(CC(=O)N=Nc3c(O)[nH]c4ccc(Br)cc34)n2C)cc1
category: class 0

compound: O=C(NNc1cnccn1)c1nc2cc(F)ccc2n2cccc12
category: class 1

compound: O=C(CN1CCCCCC1)Nc1nc2ccc(NCc3ccc(Cl)cc3)cc2s1
category: class 0

compound: C=C(C)[C@@H]1CC[C@]2(C(=O)N3CCN(C)CC3)CC[C@]3(C)[C@H](CC[C@@H]4[C@@]5(C)CC[C@H](OC(=O)c6ccccc6C(=O)O)C(C)(C)[C@@H]5CC[C@]43C)[C@@H]12
category: class 0

compound: O=[N+]([O-])c1ccc(-c2cn3nc(-c4c[nH]c5ccccc45)sc3n2)cc1
category: class 0

compound: CC1(C)CC(=O)c2c(nn(-c3ccc(Br)cc3)c2-c2cn(-c3ccccc3)nc2-c2cccnc2)C1
category: class 0

compound: CCS/C(Nc1ccccc1)=C(\C#N)C(=O)Nc1ccc(OC)cc1
category: class 1
